measurement_target: T1, biotinylated-Lys63 linked Di-Ub (UniProt P0CG47 1-76, isopeptide bond between the C-terminal Gly of the distal Ub and Lys63 of the proximal Ub; biotin tag at the N-terminus of the distal Ub)
T1 construct: mature; Immobilised on streptavidin plates or on the SPR CAPture chip; also called K63-linked Di-Ub; biotin-Lys63 linked Di-Ub
measurement_protocol: fluorescence-based competitive assay: unlabeled peptide, 5.0 molar equiv., pre-bound to biotinylated Lys63-linked Di-Ub on a streptavidin plate, then competed with CP1-FITC (1 equiv.); signal change relative to 1 (CP1), Y=[1-(a/b)]x100
Starred links: 1 amine or outer side, 2 acyl side, 3 side chain; linkers in the order of their positions; H or OH if unused. Positions of bridges follow the written chain, without caps; N, C: chain ends. mBz = 3-(methylene)benzoyl on the N-terminal amine, O=C(c1cccc(C[*:3])c1)[*:2]
experimental_endpoint: binding result

mBz-LLIWIGSSKNPCILCG-NH2 (thioether N-15; SMILES CC[C@H](C)[C@@H]1NC(=O)[C@H](Cc2c[nH]c3ccccc23)NC(=O)[C@H]([C@@H](C)CC)NC(=O)[C@H](CC(C)C)NC(=O)[C@H](CC(C)C)NC(=O)c2cccc(c2)CSC[C@@H](C(=O)NCC(N)=O)NC(=O)[C@H](CC(C)C)NC(=O)[C@H]([C@@H](C)CC)NC(=O)[C@H](CS)NC(=O)[C@@H]2CCCN2C(=O)[C@H](CC(N)=O)NC(=O)[C@H](CCCCN)NC(=O)[C@H](CO)NC(=O)[C@H](CO)NC(=O)CNC1=O, also called CP1-Y12C; cyclic peptide 12) [12] | binds
mBz-LLIWCGSSKNPYILCG-NH2 (thioether N-15; SMILES CC[C@H](C)[C@@H]1NC(=O)[C@H](CC(C)C)NC(=O)[C@H](CC(C)C)NC(=O)c2cccc(c2)CSC[C@@H](C(=O)NCC(N)=O)NC(=O)[C@H](CC(C)C)NC(=O)[C@H]([C@@H](C)CC)NC(=O)[C@H](Cc2ccc(O)cc2)NC(=O)[C@@H]2CCCN2C(=O)[C@H](CC(N)=O)NC(=O)[C@H](CCCCN)NC(=O)[C@H](CO)NC(=O)[C@H](CO)NC(=O)CNC(=O)[C@H](CS)NC(=O)[C@H](Cc2c[nH]c3ccccc23)NC1=O, also called CP1-I5C; cyclic peptide 6) [6] | binds
mBz-LLIWIGCSKNPYILCG-NH2 (thioether N-15; SMILES CC[C@H](C)[C@@H]1NC(=O)[C@H](Cc2c[nH]c3ccccc23)NC(=O)[C@H]([C@@H](C)CC)NC(=O)[C@H](CC(C)C)NC(=O)[C@H](CC(C)C)NC(=O)c2cccc(c2)CSC[C@@H](C(=O)NCC(N)=O)NC(=O)[C@H](CC(C)C)NC(=O)[C@H]([C@@H](C)CC)NC(=O)[C@H](Cc2ccc(O)cc2)NC(=O)[C@@H]2CCCN2C(=O)[C@H](CC(N)=O)NC(=O)[C@H](CCCCN)NC(=O)[C@H](CO)NC(=O)[C@H](CS)NC(=O)CNC1=O, also called CP1-S7C; cyclic peptide 8) [8] | binds

Source of measurements: patent US20250099534A1
